TEST: Confirmation screen for delayed death inhibitors of the malarial parasite plastid, 96 hour incubation; further: potency means the concentration at half of the fitted maximal effect; nearly all actives have a fitted effect of over 60% in size
ASSAY CONTEXT: P. falciparum luciferase growth in erythrocytes; series mostly up to 28.7 µM
Out of some 2,300 compounds screened, about 1,400 (61%) were called active. Roughly 29% stayed inconclusive and do not appear here. So high a share suggests a set chosen from earlier hits. This is one part of the list.
Hi there, I'd appreciate the recorded Potency for every entry that follows.

Tell me the measured Potency of CCOc1cc(/C=C2\COc3ccccc3C2=O)ccc1OCC(=O)N(C)C , please. 12.6 µM (active)

Then what about the molecule Cn1nnnc1Sc1ncnc2scc(-c3cccc(S(C)(=O)=O)c3)c12 ? 12.6 µM (active)

// each molecule listed below needs its Potency
1. Cn1nnnc1Sc1ncnc2scc(-c3cccc(F)c3)c12
2. COc1ccc(C2c3[nH]c4ccccc4c3CCN2Cc2ccoc2)c(F)c1 (centres undefined)

6.31 µM (active)
12.6 µM (active)
